B1: Zinc finger MYM-type protein 3, residues 405 to 444; numbered along this chain, Q14202 (parent)
chain: DATRCSICQKTGEVLHEVSNGSVVHRLCSDSCFSKFRANK

Variants of: B1
Assay: abundance fitness (aPCA) (normalised: wild type 0, dead -1); higher = more abundant; growth selection in yeast, the domain comes from the species named
Conditions: Homo sapiens
# abundance fitness >= -0.1 gives met, anything below gives not met

>>> df
    mutation_label  category_label
 0            D30L         not met
 1            N39C         not met
 2            V24I             met
 3            N20V         not met
 4            N20W         not met
 5            E17K             met
 6             T3D             met
 7             C5Q         not met
 8            C28D         not met
 9            S31I             met
10             Q9P         not met
11            H16C         not met
12            R37Y         not met
13            V18A         not met
14            L15V             met
15            V23P         not met
16             R4H             met
17            A38E             met
18             T3V         not met
19             S6V         not met
20            K10S         not met
21            L15I             met
22             C8P         not met
23             I7M         not met
24            K40A             met
25            H25Y         not met
26            S22H             met
27            D30Q             met
28            S19M         not met
29            S34K             met
30            F36E             met
31            E17M         not met
32            S31K             met
33            A38D         not met
34            V18N         not met
35            N20S             met
36            K35W         not met
37            G21V         not met
38            L15G         not met
39             S6G         not met
40            C32R         not met
41            C32P         not met
42            S19A         not met
43            N20M             met
44            C28L         not met
45            E13K             met
46            N20A             met
47             C8Y         not met
48            F33W             met
49            L15P             met
50            V18P         not met
